Molecular target: Hck (UniProt P08631)
Sequence (P08631 whole entry, looked up): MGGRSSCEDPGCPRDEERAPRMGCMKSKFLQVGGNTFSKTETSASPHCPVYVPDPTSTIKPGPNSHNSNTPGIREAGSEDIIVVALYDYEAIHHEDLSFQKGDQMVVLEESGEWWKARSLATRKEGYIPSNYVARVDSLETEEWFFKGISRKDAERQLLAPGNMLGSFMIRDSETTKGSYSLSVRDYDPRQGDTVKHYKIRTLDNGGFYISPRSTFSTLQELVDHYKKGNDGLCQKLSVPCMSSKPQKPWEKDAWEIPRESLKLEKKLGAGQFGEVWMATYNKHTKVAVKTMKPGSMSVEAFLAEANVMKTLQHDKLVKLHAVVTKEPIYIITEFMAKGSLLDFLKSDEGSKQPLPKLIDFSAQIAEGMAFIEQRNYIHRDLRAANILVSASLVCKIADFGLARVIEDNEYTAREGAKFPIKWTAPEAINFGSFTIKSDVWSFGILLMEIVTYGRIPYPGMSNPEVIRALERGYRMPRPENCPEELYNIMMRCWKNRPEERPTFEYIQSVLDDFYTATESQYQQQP
Assay: phosphorylation enrichment, bacterial display (enrichment ratio); higher = better substrate or ligand; peptides without Tyr show the background
Class key for phosphorylation enrichment values: class A (below 0.5), class B (0.5 to below 0.7), class C (0.7 or more)

Below are worked cases with known answers.
Sequence chain: MGCVNYGAFIN [GLB1_Y485_R482C_YF]
Assigned label: class B
//
Sequence chain: CTTIHYNSMCN [TP53_Y234_Y236S]
Assigned label: class B
//
Sequence chain: HELFVYKSDEN [DOCK3_Y548_C550S_YF]
Assigned label: class B
//
Sequence chain: VDSLRYIYPKL [EIF2B3_Y92_A87V]
Assigned label: class B
//
Sequence chain: QDLFLYQTHSE [PKHD1_Y255]
Assigned label: class C

# classify by phosphorylation enrichment band: FDRREYSRFEK [ITGB7_Y758_YF]
class A

# classify by phosphorylation enrichment band: CEDMEYLESKQ [BTK_Y511_A508D]
class B

# classify by phosphorylation enrichment band: YEKFLYFLPAS [DYNC2H1_Y346_H341Y]
class C

# classify by phosphorylation enrichment band: SSNLYYRWLTA [CNGA3_Y169]
class C

# classify by phosphorylation enrichment band: VVTFSYKPPGN [RBL2_Y544]
class A

# classify by phosphorylation enrichment band: QVMDGYPIPIG [MMP14_Y353_M355I]
class B

# classify by phosphorylation enrichment band: EVVGRYSLHNA [MLH1_Y183_V185L]
class A

# classify by phosphorylation enrichment band: GGQDVYGDFGG [Probound]
class C

# classify by phosphorylation enrichment band: TSPKSYPSQKH [CAP2_Y316]
class A

# classify by phosphorylation enrichment band: GPKFGYDEIDN [ACOX1_Y232]
class A

# classify by phosphorylation enrichment band: RLLVVFPWTQR [HBB_Y36_Y36F]
class C

# classify by phosphorylation enrichment band: ILGLEYSLRLP [HELZ2_Y1304_V1308L]
class A

# classify by phosphorylation enrichment band: QKINKYLTVPA [SLC9A1_Y683_N682K]
class A

# classify by phosphorylation enrichment band: REGKIYEYNQV [ZNF665_Y162_H157R]
class C

# classify by phosphorylation enrichment band: PHQTIYSALMI [FGF23_Y70]
class C

# classify by phosphorylation enrichment band: QAKRKYQEVSK [FES_Y156_A159V]
class A

# classify by phosphorylation enrichment band: FGSLLYKYAFK [FANCD2_Y458]
class A

# classify by phosphorylation enrichment band: RPASQYPHQVP [ADAM12_Y895_P893S]
class B

* * *

Target: Hck (UniProt P08631)
Experiment: phosphorylation enrichment, bacterial display (enrichment ratio); higher = better substrate or ligand; peptides without Tyr show the background
Record Yes whenever phosphorylation enrichment is at 0.6 or higher; record No when lower.

Below are worked cases with known answers.
Sequence chain: SVVVPYEAPEV [TP53_Y220_P222A]
Assigned label: No

Sequence chain: MSSLPYMKMIF [SLC4A11_Y853]
Assigned label: Yes

Sequence chain: AQADIYKADFQ [IKBKG_Y308]
Assigned label: Yes

Sequence chain: IATTIYSGDKI [UGGT2_Y823_A821T]
Assigned label: Yes

Sequence chain: DNAFQYMLTDR [MYH7_Y164_YF]
Assigned label: No

Does phosphorylation enrichment meet or surpass 0.6 for YMRGMYFRMKD [PLA2G6_Y541] ?
No

Does phosphorylation enrichment meet or surpass 0.6 for RDVEQYVNNVN [PCDH19_Y1097_L1094V] ?
Yes

Does phosphorylation enrichment meet or surpass 0.6 for HSDFQYSQRSQ [PKP2_Y168_YF] ?
Yes

* * *

Molecular target: FGFR3 (UniProt P22607)
Sequence (P22607 whole entry, looked up): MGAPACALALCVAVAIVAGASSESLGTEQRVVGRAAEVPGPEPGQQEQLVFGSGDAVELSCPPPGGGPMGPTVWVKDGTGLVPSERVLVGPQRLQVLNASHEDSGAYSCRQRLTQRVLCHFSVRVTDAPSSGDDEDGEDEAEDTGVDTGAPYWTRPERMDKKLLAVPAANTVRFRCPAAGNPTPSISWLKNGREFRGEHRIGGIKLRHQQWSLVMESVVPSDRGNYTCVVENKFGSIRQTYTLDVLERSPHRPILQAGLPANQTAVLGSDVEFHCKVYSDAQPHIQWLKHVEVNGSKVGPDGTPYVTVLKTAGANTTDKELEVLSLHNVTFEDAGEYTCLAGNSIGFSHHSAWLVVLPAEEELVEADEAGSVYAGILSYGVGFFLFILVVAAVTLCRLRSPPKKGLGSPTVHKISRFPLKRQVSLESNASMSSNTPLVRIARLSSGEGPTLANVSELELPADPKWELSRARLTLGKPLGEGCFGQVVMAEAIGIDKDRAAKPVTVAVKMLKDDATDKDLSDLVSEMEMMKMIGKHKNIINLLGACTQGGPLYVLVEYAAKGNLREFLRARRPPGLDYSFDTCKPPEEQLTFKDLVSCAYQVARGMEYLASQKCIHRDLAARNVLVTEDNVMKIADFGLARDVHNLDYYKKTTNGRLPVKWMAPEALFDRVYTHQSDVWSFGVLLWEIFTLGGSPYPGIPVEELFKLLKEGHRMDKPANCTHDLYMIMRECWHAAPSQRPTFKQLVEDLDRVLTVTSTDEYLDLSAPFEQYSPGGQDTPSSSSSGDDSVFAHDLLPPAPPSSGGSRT
Experiment: phosphorylation enrichment, bacterial display (enrichment ratio); higher = better substrate or ligand; peptides without Tyr show the background
Record class 1 whenever phosphorylation enrichment is at 0.7 or higher; record class 0 when lower.

Below are worked cases with known answers.
Sequence chain: KTVQDYLKKFF [MMP8_Y36_E38K_YF]
Assigned label: class 0
//
Sequence chain: EQFELHCEMGS [CBL_Y371_Y371H_YF]
Assigned label: class 1
//
Sequence chain: QNAGDYYDLYG [PTPN11_Y62_T59A]
Assigned label: class 1

# evaluate next
Does phosphorylation enrichment meet or surpass 0.7 for CVGGFYGGCNE [CTSC_Y352_Y347C] ?
class 0

* * *

Assign phosphorylation enrichment to each entry below.
Target: Jak2 (UniProt O60674)
Sequence (O60674 whole entry, looked up): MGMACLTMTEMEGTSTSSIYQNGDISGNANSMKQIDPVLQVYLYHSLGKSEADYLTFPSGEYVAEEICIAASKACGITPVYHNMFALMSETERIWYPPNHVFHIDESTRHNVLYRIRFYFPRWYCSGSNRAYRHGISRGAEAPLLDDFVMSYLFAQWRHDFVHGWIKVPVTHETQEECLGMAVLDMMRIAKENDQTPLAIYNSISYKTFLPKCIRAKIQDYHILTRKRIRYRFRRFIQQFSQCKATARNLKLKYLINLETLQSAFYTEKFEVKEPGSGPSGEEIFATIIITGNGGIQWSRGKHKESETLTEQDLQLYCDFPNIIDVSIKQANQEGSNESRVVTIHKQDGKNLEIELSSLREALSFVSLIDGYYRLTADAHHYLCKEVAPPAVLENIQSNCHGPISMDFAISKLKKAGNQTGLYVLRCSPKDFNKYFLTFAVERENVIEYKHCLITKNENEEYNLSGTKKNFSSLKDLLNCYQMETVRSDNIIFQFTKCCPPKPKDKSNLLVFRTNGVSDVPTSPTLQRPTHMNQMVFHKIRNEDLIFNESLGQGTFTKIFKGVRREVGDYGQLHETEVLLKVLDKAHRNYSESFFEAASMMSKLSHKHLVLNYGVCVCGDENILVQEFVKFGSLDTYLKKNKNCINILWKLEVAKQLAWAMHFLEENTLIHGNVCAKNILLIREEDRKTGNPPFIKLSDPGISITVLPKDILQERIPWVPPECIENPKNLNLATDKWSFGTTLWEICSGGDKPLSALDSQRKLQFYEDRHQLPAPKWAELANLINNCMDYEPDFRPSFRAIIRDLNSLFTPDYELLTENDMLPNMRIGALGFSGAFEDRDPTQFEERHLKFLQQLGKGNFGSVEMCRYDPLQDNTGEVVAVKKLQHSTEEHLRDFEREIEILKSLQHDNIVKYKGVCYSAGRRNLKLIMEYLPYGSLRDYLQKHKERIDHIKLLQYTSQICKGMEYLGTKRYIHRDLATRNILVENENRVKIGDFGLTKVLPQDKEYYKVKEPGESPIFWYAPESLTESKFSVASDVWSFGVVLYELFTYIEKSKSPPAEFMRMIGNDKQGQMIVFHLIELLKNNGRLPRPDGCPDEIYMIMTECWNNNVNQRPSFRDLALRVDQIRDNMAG
Experiment: phosphorylation enrichment, bacterial display (enrichment ratio); higher = better substrate or ligand; peptides without Tyr show the background
Answers are plain numbers.

Report phosphorylation enrichment for each item below.
1. ITGNGYFFRVF [MYBPC3_Y1135_I1131T_YF]
2. EWQQTYTFDSG [JUP_Y20_YF]

1. 0.99
2. 1.02

Report phosphorylation enrichment for each item below.
1. SESSFYKSLNL [NGEF_Y289_A286S_YF]
2. RFGRKYKKVRF [F8_Y442_I438F]
3. CTTILYNYMCN [TP53_Y234_H233L]
4. GDYYRYLAEVA [YWHAG_Y133]

1.06
0.884
1.16
5.81

Report phosphorylation enrichment for each item below.
1. QVMDGYPIPIG [MMP14_Y353_M355I]
2. RFLRGYEQDAY [HLA-A_Y137_R138E]

0.554
0.807

Report phosphorylation enrichment for each item below.
1. VEFAKYGSLRG [RET_Y809_YF]
2. QGFDTYFGYLL [ARSB_Y165_R160Q]
3. SMGMKYLEEKN [ZAP70_Y451]

0.541
5.92
0.727

Report phosphorylation enrichment for each item below.
1. FEHVGYTTLNR [CHN1_Y148_YF]
2. VNYGAYINDFN [GLB1_Y488_K493N]
3. ESMQSYDLDFP [UNC13B_Y243_D238E_YF]
4. RVKTPYSLKRW [BMPR2_Y979]
5. KRLKDYLMVLQ [USP25_Y425_T427M]

1: 0.527; 2: 0.748; 3: 0.777; 4: 1.24; 5: 0.595

Report phosphorylation enrichment for each item below.
1. RIVRKYKKVRF [F8_Y442_G439V]
2. LSERGYSFVTT [ACTA2_Y200_T196S]
3. SVTCTDSPALN [TP53_Y126_Y126D]
4. LWQSIYNLDAE [TNNT2_Y251_E254D]

1: 0.65; 2: 1.08; 3: 0.958; 4: 0.981

Report phosphorylation enrichment for each item below.
1. ETDSEYVKLSK [C7orf57_Y70_A74S]
2. FADGVYLALEE [DUOX2_Y70_Q71L_YF]
3. QGIFGYHHHMQ [UFSP2_Y287_Y290H_YF]
4. QLFGAYLRIHA [BSCL2_Y213_YF]

1: 1.01; 2: 0.968; 3: 1.07; 4: 1.37

Report phosphorylation enrichment for each item below.
1. HPFHVYPQPGM [BAG3_Y114]
2. SQQTYCRVSNM [ABCD1_Y181_Y181C]
3. HFVFFYSFLLK [PTEN_Y178_R173H_YF]
4. CTTIHNNYMCN [TP53_Y234_Y234N]
5. YEEDSYSHVMA [FDPS_Y388_I391V]
6. ERDYTYEELLN [EIF2S2_Y176]

0.545
0.623
3.35
0.61
0.944
1.18

* * *

Target: c-Src SH2;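 further: peptide library displayed on the E. coli surface as eCPX fusions, selected cells deep-sequenced, score is each peptide's frequency after selection divided by its frequency in the input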
Test: SH2 binding enrichment of the phosphorylated peptide, bacterial display (enrichment ratio); higher = better substrate or ligand; peptides without Tyr show the background
Assign SH2 binding enrichment to each entry below.
Numbers only.

Solved entries (count: 2):
Sequence chain: FFIMMYTGSNV [DNAJC13_Y1131]
SH2 binding enrichment: 0.508

Sequence chain: FEEDSYVERSQ [RET_Y905_K907E_YF]
SH2 binding enrichment: 0.512

Field: next sequence
The value of SH2 binding enrichment recorded for FFRDGYMPRQF [GSS_Y270_YF] when tested on c-Src SH2 reads 0.509

* * *

Assign phosphorylation enrichment to each entry below.
Biological target: EPHB1 (UniProt P54762)
Sequence (P54762 whole entry, looked up): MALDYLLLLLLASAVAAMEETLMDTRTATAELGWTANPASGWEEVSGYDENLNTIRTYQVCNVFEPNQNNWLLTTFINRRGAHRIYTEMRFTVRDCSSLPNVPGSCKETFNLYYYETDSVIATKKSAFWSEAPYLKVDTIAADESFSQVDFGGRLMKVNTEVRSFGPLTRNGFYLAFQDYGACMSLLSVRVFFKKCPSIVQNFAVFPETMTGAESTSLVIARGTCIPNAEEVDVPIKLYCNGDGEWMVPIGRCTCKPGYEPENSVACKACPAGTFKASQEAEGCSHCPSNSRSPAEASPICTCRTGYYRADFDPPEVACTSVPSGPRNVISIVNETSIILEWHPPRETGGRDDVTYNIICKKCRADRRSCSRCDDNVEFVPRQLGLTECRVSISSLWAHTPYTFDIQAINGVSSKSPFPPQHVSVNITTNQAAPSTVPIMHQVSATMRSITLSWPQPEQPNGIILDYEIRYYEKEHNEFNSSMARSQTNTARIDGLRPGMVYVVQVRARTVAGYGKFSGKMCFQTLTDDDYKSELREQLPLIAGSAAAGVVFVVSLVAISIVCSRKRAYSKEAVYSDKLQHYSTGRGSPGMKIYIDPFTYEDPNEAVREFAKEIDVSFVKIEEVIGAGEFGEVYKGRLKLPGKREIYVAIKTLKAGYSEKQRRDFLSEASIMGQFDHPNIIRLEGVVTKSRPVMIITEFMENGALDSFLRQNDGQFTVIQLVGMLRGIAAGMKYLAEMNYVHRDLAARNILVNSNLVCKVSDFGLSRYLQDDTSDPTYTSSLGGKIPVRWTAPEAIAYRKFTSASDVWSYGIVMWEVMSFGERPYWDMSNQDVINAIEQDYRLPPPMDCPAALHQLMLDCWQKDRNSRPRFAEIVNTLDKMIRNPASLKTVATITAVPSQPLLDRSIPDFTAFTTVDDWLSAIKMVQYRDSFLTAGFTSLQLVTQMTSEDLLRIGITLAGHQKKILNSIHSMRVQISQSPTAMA
Test: phosphorylation enrichment, bacterial display (enrichment ratio); higher = better substrate or ligand; peptides without Tyr show the background
Numbers only.

Solved entries (count: 2):
Sequence chain: PPGRSYSPYDY [TNS1_Y793]
Quantitative readout: 1.12
//
Sequence chain: EVDETYVPKKF [ALB_Y521_E525K]
Quantitative readout: 0.685

Report phosphorylation enrichment for each item below.
1. PVFIKYLPEWT [PSEN1_Y240_L235P]
2. FRARAYGFRGP [CHGA_Y381]
3. SVTCTDSPALN [TP53_Y126_Y126D]
4. PPGRSYSPCDY [TNS1_Y793_Y796C]
5. SHNELYYEEAE [VANGL1_Y344]
6. KGELRYMHSRV [ABCD1_Y281]
7. TSPKSYPSQKH [CAP2_Y316]

1. 0.64
2. 0.472
3. 0.6
4. 0.512
5. 0.736
6. 0.396
7. 0.364

Report phosphorylation enrichment for each item below.
1. GNKENYGLPQP [BUB1_Y538]
2. CRPPYYHRNCM [HGD_Y334_F329C]
3. ADYPDCKYRPR [SOX11_Y116_Y116C]
4. AKQVGYENAGT [PC_Y304]

1: 0.489; 2: 0.436; 3: 0.496; 4: 0.511
